Target: MMP-2 (Homo sapiens)
Construct: Catalytic domains MMP-2, MMP-3 and MMP-9 were prepared in Pfizer Central Research laboratories
Sequence (P08253 with tags, fused parts or gaps DEL222-396 limits assumed): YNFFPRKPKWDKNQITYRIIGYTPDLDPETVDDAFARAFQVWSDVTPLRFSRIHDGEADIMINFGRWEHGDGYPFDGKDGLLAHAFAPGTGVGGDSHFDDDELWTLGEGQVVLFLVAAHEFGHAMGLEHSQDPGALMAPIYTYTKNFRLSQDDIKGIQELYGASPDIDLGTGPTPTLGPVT
Assay: Inhibition of MMP-2 (fluorogenic peptide cleavage)
Type: biochemical
Conditions: in vitro, catalytic domain MMP-2
Property: IC50; scope: individual compounds
TEST_READOUT: IC50

1. COc1cccc(-c2ccc(C3CCN(S(=O)(=O)C4(C(=O)NO)Cc5ccccc5C4)CC3)cc2C)c1: 1910 nM
2. O=C(CS(=O)(=O)N1CCC(c2ccc(-c3ccccc3)cc2)CC1)NO: 38 nM
3. C=CCC(C)(C(=O)NO)S(=O)(=O)N1CC=C(c2ccc(-c3ccccc3)c(C)c2)CC1 (racemic): 173 nM

Data origin, for the record: patent US6495568B1
